B1: CPEB3 Ribozyme (parent)
chain: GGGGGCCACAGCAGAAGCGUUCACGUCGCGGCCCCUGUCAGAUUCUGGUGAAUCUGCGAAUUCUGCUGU

Variants of: B1
assay: self-cleavage, relative activity (ratio to wild type); higher = more cleavage; co-transcriptional
quantity-name: self-cleavage
Form rule: numeric answer, no unit written next to it.

GGGGGCCACAGCAGAAGCGUUCACGUCGCGGCCCCUGUCAGAUUCUGGUGGAUCUGCCAAUUCUGCUGU [A51G G58C]	1.01
GGGGGCCACAGCACAAGCGUUCACGUCGCGGCCCCUGUCAGAUGCUGGUGAAUCUGCGAAUUCUGCUGU [G14C U44G]	0.39
GGGAGCCACAGCAGAAGCGUUCACUUCGCGGCCCCUGUCAGAUUCUGGUGAAUCUGCGAAUUCUGCUGU [G4A G25U]	0.0834
GGGGGCCACAGCAGAAGCGAUCACGUCGCGGCCCCUGUCAGAUUCUGGUCAAUCUGCGAAUUCUGCUGU [U20A G50C]	0.188
GGGGGCCACAGCAGAAGCGUUCACGUCGCCGCCCCUGUCAGAUUCUGGUGAAUCUGCGAUUUCUGCUGU [G30C A60U]	0.242
GGGGGCCACAGCAGAAGCGUACACGUCGCGGCCCUUGUCAGAUUCUGGUGAAUCUGCGAAUUCUGCUGU [U21A C35U]	0.869
GGGGGCCACAGCAGAAACGUUCACGUCGCGGCCCCUGUCAGAUUCUCGUGAAUCUGCGAAUUCUGCUGU [G17A G47C]	0.641
AGGGGCCACAGCAGAAGCGUUCACGUCGCGGCCCCUGUCAGAUUCUGGUGAAUCUGCGAAUUAUGCUGU [G1A C63A]	0.1
GGGGGCCACAGCAGAAGCGUGCACGUCGCGGCCCCAGUCAGAUUCUGGUGAAUCUGCGAAUUCUGCUGU [U21G U36A]	0.17
GGGGGCCACAGCAGAAGCCUUCACGUCGCGGCCCCUGUCAGAUUCUGGUUAAUCUGCGAAUUCUGCUGU [G19C G50U]	0.186

Now for another entry.
-- ask self-cleavage for GGGGGCCACAGUAGAAGCGUUCACGUCGCGGCCCCUGUGAGAUUCUGGUGAAUCUGCGAAUUCUGCUGU [C12U C39G] ?
-- reply 0.928

Data credit: the RNAGym collection of RNA variant scans (doi:10.7554/elife.80360)
